molecular target: MAGI2_3, Q86UL8; experiment: holdup assay; set-up: key: below the threshold = too weak to quantify, mostly under pKd 3.1 to 4; conditions: plain residues with an end cap or a label only (N-terminal biotin on a linker: ado-ado)
Sequence (Q86UL8 600-682): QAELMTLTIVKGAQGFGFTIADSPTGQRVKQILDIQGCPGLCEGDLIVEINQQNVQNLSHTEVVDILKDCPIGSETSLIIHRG
endpoint.name: pKd

binder: DGVNEKVSCV [HTR2A, P28223]
observed.result: 4.72
//
binder: SLNANEVEWF [RNF130, Q86XS8]
observed.result: 3.7
//
binder: ILRKSTTTTV [PRR16, Q569H4]
observed.result: 3.74
//
binder: KPGKGSETVV [FZD4, Q9ULV1]
observed.result: below the threshold
//
binder: LAHVKHKEQI [AQP3, Q92482]
observed.result: below the threshold
//
binder: PSHPRLQTHV [KIRREL2, Q6UWL6]
observed.result: 3.67
//
binder: ARESQKVSHV [FAM110B, Q8TC76]
observed.result: 4.25
//
binder: LKDDELKTKL [SLCO1A2, P46721]
observed.result: below the threshold
//
binder: QLSFNTDTLC [ABCA2, Q9BZC7]
observed.result: below the threshold
